Hi there, I'd appreciate the recorded inhibition for every entry that follows.
Target: DNA topoisomerase I (Leishmania donovani donovani)
Assay: Inhibition of Leishmania donovani topoisomerase 1-induced relaxation activity assessed as recovery of supercoiled DNA at 50 uM
Express your answer in %, writing the number without its unit.

Given the molecule CN(C)CCCOc1ccc(-c2nc3ccc4c(c3[nH]2)C(=O)c2ccccc2C4=O)cc1 , write its reported inhibition.
5

Given the molecule O=C1c2ccccc2C(=O)c2c1ccc1nc(-c3ccc(OCCCn4ccnc4)cc3)[nH]c21 , write its reported inhibition.
91

Given the molecule O=C1c2ccccc2C(=O)c2c1ccc1nc(-c3cccnc3)[nH]c21 , write its reported inhibition.
80

Given the molecule O=C1c2ccccc2C(=O)c2c1ccc1nc(-c3ccc(OCCCN4CCOCC4)cc3)[nH]c21 , write its reported inhibition.
92

Given the molecule CC[C@@]1(O)C(=O)OCc2c1cc1n(c2=O)Cc2cc3ccccc3nc2-1 , write its reported inhibition.
65

###

Tested on: DNA
Assay: Binding affinity to calf thymus double stranded DNA
Assay type: nucleic-acid assay
Settings: Bos taurus
Hi there, I'd appreciate the recorded Ka for every entry that follows.

Lab note: DNA assay, enter Ka for O=C1c2ccccc2C(=O)c2c1ccc1nc(-c3ccc(OCCCn4ccnc4)cc3)[nH]c21 here
1.1 10^5/M

Lab note: DNA assay, enter Ka for O=C1c2ccccc2C(=O)c2c1ccc1nc(-c3ccc(OCCCn4cnnn4)cc3)[nH]c21 here
0.5 10^5/M

Lab note: DNA assay, enter Ka for CN(C)CCCOc1ccc(-c2nc3ccc4c(c3[nH]2)C(=O)c2ccccc2C4=O)cc1 here
2.1 10^5/M

Lab note: DNA assay, enter Ka for CCN(CC)CCCOc1ccc(-c2nc3ccc4c(c3[nH]2)C(=O)c2ccccc2C4=O)cc1 here
1.9 10^5/M

Lab note: DNA assay, enter Ka for CN1CCN(CCCOc2ccc(-c3nc4ccc5c(c4[nH]3)C(=O)c3ccccc3C5=O)cc2)CC1 here
1 10^5/M

Lab note: DNA assay, enter Ka for O=C1c2ccccc2C(=O)c2c1ccc1nc(-c3ccc(OCCCN4CCN(CCO)CC4)cc3)[nH]c21 here
1.9 10^5/M

Lab note: DNA assay, enter Ka for O=C1c2ccccc2C(=O)c2c1ccc1nc(-c3ccc(OCCCN4CCOCC4)cc3)[nH]c21 here
0.6 10^5/M

###

Molecular target: DNA topoisomerase I (Leishmania donovani donovani)
Test: Inhibition of Leishmania donovani topoisomerase 1-induced relaxation activity assessed as recovery of supercoiled DNA at 50 uM
Observable: inhibition

Given the compound CCN(CC)CCCOc1ccc(-c2nc3ccc4c(c3[nH]2)C(=O)c2ccccc2C4=O)cc1 , write its reported inhibition.
10%

Given the compound CN1CCN(CCCOc2ccc(-c3nc4ccc5c(c4[nH]3)C(=O)c3ccccc3C5=O)cc2)CC1 , write its reported inhibition.
10%

Given the compound O=C1c2ccccc2C(=O)c2c1ccc1nc(-c3ccc(OCCCN4CCN(CCO)CC4)cc3)[nH]c21 , write its reported inhibition.
5%

Given the compound O=C1c2ccccc2C(=O)c2c1ccc1nc(-c3ccccn3)[nH]c21 , write its reported inhibition.
75%

Given the compound O=C1c2ccccc2C(=O)c2c1ccc1nc(-c3ccc(OCCCn4cnnn4)cc3)[nH]c21 , write its reported inhibition.
95%

###

Experiment: Binding affinity to double stranded poly[d[A-T)]2 DNA
Conditions: Homo sapiens
Hi there, I'd appreciate the recorded Ka for every entry that follows.

Given the compound CN(C)CCCOc1ccc(-c2nc3ccc4c(c3[nH]2)C(=O)c2ccccc2C4=O)cc1 , write its reported Ka.
4.1 10^5/M

Given the compound O=C1c2ccccc2C(=O)c2c1ccc1nc(-c3ccc(OCCCn4cnnn4)cc3)[nH]c21 , write its reported Ka.
0.5 10^5/M

Given the compound CCN(CC)CCCOc1ccc(-c2nc3ccc4c(c3[nH]2)C(=O)c2ccccc2C4=O)cc1 , write its reported Ka.
3.2 10^5/M

Given the compound O=C1c2ccccc2C(=O)c2c1ccc1nc(-c3ccc(OCCCn4ccnc4)cc3)[nH]c21 , write its reported Ka.
1.8 10^5/M

Given the compound CN1CCN(CCCOc2ccc(-c3nc4ccc5c(c4[nH]3)C(=O)c3ccccc3C5=O)cc2)CC1 , write its reported Ka.
2.8 10^5/M

Given the compound O=C1c2ccccc2C(=O)c2c1ccc1nc(-c3ccc(OCCCN4CCN(CCO)CC4)cc3)[nH]c21 , write its reported Ka.
3 10^5/M

Given the compound O=C1c2ccccc2C(=O)c2c1ccc1nc(-c3ccc(OCCCN4CCOCC4)cc3)[nH]c21 , write its reported Ka.
1.1 10^5/M

###

Target: DNA topoisomerase I (Leishmania donovani donovani)
Test: Inhibition of Leishmania donovani topoisomerase 1-induced relaxation activity assessed as recovery of supercoiled DNA at 10 uM
Hi there, I'd appreciate the recorded inhibition for every entry that follows.
Express your answer in %, writing the number without its unit.

Given the compound O=C1c2ccccc2C(=O)c2c1ccc1nc(-c3ccccn3)[nH]c21 , write its reported inhibition.
9

Given the compound CC[C@@]1(O)C(=O)OCc2c1cc1n(c2=O)Cc2cc3ccccc3nc2-1 , write its reported inhibition.
39

Given the compound O=C1c2ccccc2C(=O)c2c1ccc1nc(-c3ccc(OCCCN4CCOCC4)cc3)[nH]c21 , write its reported inhibition.
46

Given the compound O=C1c2ccccc2C(=O)c2c1ccc1nc(-c3cccnc3)[nH]c21 , write its reported inhibition.
9

Given the compound O=C1c2ccccc2C(=O)c2c1ccc1nc(-c3ccc(OCCCn4cnnn4)cc3)[nH]c21 , write its reported inhibition.
80

Given the compound O=C1c2ccccc2C(=O)c2c1ccc1nc(-c3ccc(OCCCn4ccnc4)cc3)[nH]c21 , write its reported inhibition.
62

###

Molecular target: DNA topoisomerase I (Leishmania donovani donovani)
Sequence (whole entry): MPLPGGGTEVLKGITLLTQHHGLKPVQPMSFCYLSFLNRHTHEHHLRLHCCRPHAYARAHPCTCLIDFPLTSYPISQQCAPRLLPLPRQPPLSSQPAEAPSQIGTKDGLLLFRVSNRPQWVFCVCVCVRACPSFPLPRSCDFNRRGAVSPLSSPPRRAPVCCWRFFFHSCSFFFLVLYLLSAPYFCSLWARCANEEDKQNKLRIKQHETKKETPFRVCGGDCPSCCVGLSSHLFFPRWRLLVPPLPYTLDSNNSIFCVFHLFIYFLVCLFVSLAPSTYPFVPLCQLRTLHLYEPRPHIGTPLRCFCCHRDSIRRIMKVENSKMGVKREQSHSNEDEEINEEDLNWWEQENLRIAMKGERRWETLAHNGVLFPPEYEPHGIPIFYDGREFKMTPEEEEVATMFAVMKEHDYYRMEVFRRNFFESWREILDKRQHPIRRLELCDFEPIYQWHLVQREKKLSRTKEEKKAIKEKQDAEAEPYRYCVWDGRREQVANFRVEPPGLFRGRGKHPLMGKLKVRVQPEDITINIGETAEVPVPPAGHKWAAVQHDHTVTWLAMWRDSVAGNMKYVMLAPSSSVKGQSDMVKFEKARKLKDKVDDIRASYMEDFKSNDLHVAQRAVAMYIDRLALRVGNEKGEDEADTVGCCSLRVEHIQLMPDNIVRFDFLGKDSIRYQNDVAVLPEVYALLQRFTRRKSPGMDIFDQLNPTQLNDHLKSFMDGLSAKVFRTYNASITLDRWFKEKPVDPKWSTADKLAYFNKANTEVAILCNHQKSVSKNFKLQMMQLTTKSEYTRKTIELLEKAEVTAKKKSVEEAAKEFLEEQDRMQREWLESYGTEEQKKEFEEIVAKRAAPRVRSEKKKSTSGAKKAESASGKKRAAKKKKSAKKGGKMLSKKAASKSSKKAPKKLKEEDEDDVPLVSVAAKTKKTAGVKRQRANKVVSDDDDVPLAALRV
Test: Inhibition of Leishmania donovani topoisomerase 1-induced relaxation activity assessed as recovery of supercoiled DNA at 20 uM
Observable: inhibition
Enter the number, and then the unit.

Given the compound O=C1c2ccccc2C(=O)c2c1ccc1nc(-c3ccccn3)[nH]c21 , write its reported inhibition.
20%

Given the compound O=C1c2ccccc2C(=O)c2c1ccc1nc(-c3cccnc3)[nH]c21 , write its reported inhibition.
15%

Given the compound CCN(CC)CCCOc1ccc(-c2nc3ccc4c(c3[nH]2)C(=O)c2ccccc2C4=O)cc1 , write its reported inhibition.
2%

Given the compound O=C1c2ccccc2C(=O)c2c1ccc1nc(-c3ccc(OCCCn4cnnn4)cc3)[nH]c21 , write its reported inhibition.
92%

Given the compound CC[C@@]1(O)C(=O)OCc2c1cc1n(c2=O)Cc2cc3ccccc3nc2-1 , write its reported inhibition.
55%

Given the compound O=C1c2ccccc2C(=O)c2c1ccc1nc(-c3ccc(OCCCN4CCOCC4)cc3)[nH]c21 , write its reported inhibition.
77%

Given the compound O=C1c2ccccc2C(=O)c2c1ccc1nc(-c3ccc(OCCCn4ccnc4)cc3)[nH]c21 , write its reported inhibition.
77%

###

Assay: Binding affinity to double stranded poly[d[G-C)]2 DNA
Conditions: Homo sapiens
Observable: Ka

Given the compound O=C1c2ccccc2C(=O)c2c1ccc1nc(-c3ccc(OCCCn4ccnc4)cc3)[nH]c21 , write its reported Ka.
0.6 10^5/M

Given the compound CCN(CC)CCCOc1ccc(-c2nc3ccc4c(c3[nH]2)C(=O)c2ccccc2C4=O)cc1 , write its reported Ka.
2.3 10^5/M

Given the compound CN(C)CCCOc1ccc(-c2nc3ccc4c(c3[nH]2)C(=O)c2ccccc2C4=O)cc1 , write its reported Ka.
3 10^5/M

Given the compound CN1CCN(CCCOc2ccc(-c3nc4ccc5c(c4[nH]3)C(=O)c3ccccc3C5=O)cc2)CC1 , write its reported Ka.
1.9 10^5/M

Given the compound O=C1c2ccccc2C(=O)c2c1ccc1nc(-c3ccc(OCCCN4CCN(CCO)CC4)cc3)[nH]c21 , write its reported Ka.
2.2 10^5/M

Given the compound O=C1c2ccccc2C(=O)c2c1ccc1nc(-c3ccc(OCCCn4cnnn4)cc3)[nH]c21 , write its reported Ka.
0.3 10^5/M

Given the compound O=C1c2ccccc2C(=O)c2c1ccc1nc(-c3ccc(OCCCN4CCOCC4)cc3)[nH]c21 , write its reported Ka.
0.5 10^5/M

# credit: ChEMBL document CHEMBL1139868
